# System: Staphylococcus aureus
# protocol-description: Antibacterial activity against methicillin-resistant Staphylococcus aureus ATCC BAA-44 after 6 to 8 hrs by bacterial proliferation assay
# Assay type: functional, organism-based
# details: Staphylococcus aureus, ATCC BAA-44

{"smiles-entry": "COc1ccc(Br)cc1C(=O)Nc1ccccc1", "EC50": "> 100 µM"}
{"smiles-entry": "O=C(Nc1ccc(Sc2nc3ccccc3s2)cc1)c1cc(Br)cc(Br)c1", "EC50": "> 100 µM"}
{"smiles-entry": "O=C(Nc1ccc(Sc2nc3ccccc3s2)c(Cl)c1)c1cccc(Br)c1", "EC50": "> 100 µM"}

====

# protocol-description: Cytotoxicity against human THLE3 cells assessed as reduction in cell viability after 48 hrs by Alamar Blue reporter assay
# details: 48 h
readout-label: CC50

{"smiles-entry": "COc1c(Br)cc(Br)cc1C(=O)Nc1cccc(Cl)c1", "readout-label": "CC50", "assay-result": "> 100 µM"}
{"smiles-entry": "COc1ccccc1C(=O)Nc1ccc(Sc2nc3ccccc3s2)cc1", "readout-label": "CC50", "assay-result": "> 100 µM"}
{"smiles-entry": "COc1c(Br)cc(Br)cc1C(=O)Nc1ccc(Sc2nc3ccccc3s2)cc1", "readout-label": "CC50", "assay-result": "> 100 µM"}

====

Each item that follows carries a reported IC50.
# study-system: E. coli GroEL/ES (Escherichia coli, UniProt P0A6F5)
# Sequence (P0A6F5 whole entry, looked up): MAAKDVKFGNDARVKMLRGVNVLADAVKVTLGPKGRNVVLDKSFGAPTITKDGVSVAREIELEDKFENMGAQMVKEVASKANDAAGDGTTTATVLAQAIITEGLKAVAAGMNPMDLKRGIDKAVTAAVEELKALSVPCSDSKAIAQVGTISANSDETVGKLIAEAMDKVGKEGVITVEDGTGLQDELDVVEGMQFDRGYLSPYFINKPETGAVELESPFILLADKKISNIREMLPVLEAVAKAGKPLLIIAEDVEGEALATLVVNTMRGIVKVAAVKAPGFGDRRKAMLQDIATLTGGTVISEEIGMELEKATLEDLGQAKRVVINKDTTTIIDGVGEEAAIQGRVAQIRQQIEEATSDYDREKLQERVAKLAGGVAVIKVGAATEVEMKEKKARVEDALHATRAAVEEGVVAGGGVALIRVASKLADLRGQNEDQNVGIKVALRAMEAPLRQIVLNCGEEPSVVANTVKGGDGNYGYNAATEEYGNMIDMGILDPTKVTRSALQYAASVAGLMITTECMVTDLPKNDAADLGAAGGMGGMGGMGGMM
# protocol-description: Inhibition of Escherichia coli GroEL expressed in Escherichia coli DH5alpha/Escherichia coli GroES expressed in Escherichia coli BL21 (DE3) assessed as reduction in GroEL/GroES-mediated denatured MDH refolding after 20 to 40 mins by spectrometric analysis

{"compound": "O=C(Nc1ccc(Sc2nc3ccccc3s2)cc1)c1cc(Br)cc(Br)c1O", "IC50": "2.7 µM"}
{"compound": "O=C(Nc1ccc(Sc2nc3ccccc3s2)cc1)c1cc(Br)cc(Br)c1", "IC50": "> 100 µM"}
{"compound": "O=C(Nc1ccc(Sc2nc3ccccc3s2)cc1)c1cccc(Br)c1O", "IC50": "33 µM"}
{"compound": "O=C(Nc1ccccc1)c1cc(Br)cc(Br)c1O [METABROMSALAN]", "IC50": "61 µM"}
{"compound": "CC1(C)S[C@@H]2[C@H](NC(=O)[C@H](N)c3ccccc3)C(=O)N2[C@H]1C(=O)O [AMPICILLIN]", "IC50": "> 100 µM"}
{"compound": "CCCCCCCCCC(=O)N[C@@H](Cc1c[nH]c2ccccc12)C(=O)NC(CC(N)=O)C(=O)N[C@@H](CC(=O)O)C(=O)N[C@@H]1C(=O)NCC(=O)N[C@@H](CCCN)C(=O)N[C@@H](CC(=O)O)C(=O)N[C@H](C)C(=O)N[C@@H](CC(=O)O)C(=O)NCC(=O)N[C@H](CO)C(=O)N[C@@H]([C@H](C)CC(=O)O)C(=O)N[C@@H](CC(=O)c2ccccc2N)C(=O)O[C@@H]1C (single isomer, unassigned) [DAPTOMYCIN]", "IC50": "> 100 µM"}
{"compound": "CO[C@H]1/C=C/O[C@@]2(C)Oc3c(C)c(O)c4c(O)c(c(/C=N/N5CCN(C)CC5)c(O)c4c3C2=O)NC(=O)/C(C)=C\\C=C\\[C@H](C)[C@H](O)[C@@H](C)[C@@H](O)[C@@H](C)[C@H](OC(C)=O)[C@@H]1C [RIFAMPIN]", "IC50": "> 100 µM"}
{"compound": "O=C(Nc1ccccc1)c1ccccc1O [SALICYLANILIDE]", "IC50": "> 100 µM"}

====

# Test system: HEK293
# protocol-description: Cytotoxicity against HEK293 cells assessed as reduction in cell viability after 48 hrs by Alamar Blue reporter assay
# details: human, hek293, 48 h

{"compound": "O=C(Nc1ccccc1)c1ccccc1O [SALICYLANILIDE]", "CC50": "> 100 µM"}
{"compound": "COc1c(Br)cccc1C(=O)Nc1ccc(Sc2nc3ccccc3s2)cc1", "CC50": "> 100 µM"}
{"compound": "O=C(Nc1ccc(Sc2nc3ccccc3s2)c(Cl)c1)c1ccccc1", "CC50": "90 µM"}
{"compound": "O=C(Nc1ccccc1)c1cccc(Br)c1", "CC50": "> 100 µM"}
{"compound": "O=C(Nc1ccc(Sc2nc3ccccc3s2)cc1)c1cc(Br)cc(Br)c1", "CC50": "> 100 µM"}
{"compound": "O=C(Nc1ccc(Sc2nc3ccccc3s2)cc1)c1cc(Br)cc(Br)c1O", "CC50": "66 µM"}
{"compound": "O=C(Nc1cccc(Cl)c1)c1cccc(Br)c1", "CC50": "51 µM"}
{"compound": "O=C(Nc1cccc(Cl)c1)c1ccccc1", "CC50": "> 100 µM"}
{"compound": "COc1ccccc1C(=O)Nc1cccc(Cl)c1", "CC50": "> 100 µM"}
{"compound": "O=C(Nc1ccc(Sc2nc3ccccc3s2)c(Cl)c1)c1cccc(Br)c1O", "CC50": "64 µM"}
{"compound": "COc1c(Br)cc(Br)cc1C(=O)Nc1ccccc1", "CC50": "> 100 µM"}
{"compound": "COc1ccccc1C(=O)Nc1ccc(Sc2nc3ccccc3s2)cc1", "CC50": "> 100 µM"}
{"compound": "CC1(C)S[C@@H]2[C@H](NC(=O)[C@H](N)c3ccccc3)C(=O)N2[C@H]1C(=O)O", "CC50": "> 100 µM"}
{"compound": "O=C(Nc1ccc(Oc2ccc(Cl)cc2)c(Cl)c1)c1cc(I)cc(I)c1O [RAFOXANIDE]", "CC50": "> 100 µM"}
{"compound": "COc1c(Br)cccc1C(=O)Nc1ccccc1", "CC50": "> 100 µM"}
{"compound": "COc1ccccc1C(=O)Nc1ccc(Sc2nc3ccccc3s2)c(Cl)c1", "CC50": "> 100 µM"}

====

# study-system: E. coli GroEL/ES (Escherichia coli)
# protocol-description: Inhibition of Escherichia coli GroEL expressed in Escherichia coli DH5alpha/Escherichia coli GroES expressed in Escherichia coli BL21 (DE3) assessed as reduction in GroEL/GroES-mediated denatured rhodanese refolding after 45 mins by spectrometric analysis

{"smiles-entry": "O=C(Nc1ccc(Sc2nc3ccccc3s2)cc1)c1cc(Br)ccc1O", "IC50": "30 µM"}
{"smiles-entry": "COc1c(Br)cc(Br)cc1C(=O)Nc1ccc(Sc2nc3ccccc3s2)c(Cl)c1", "IC50": "> 100 µM"}
{"smiles-entry": "O=C(Nc1cccc(Cl)c1)c1cc(Br)cc(Br)c1", "IC50": "> 100 µM"}
{"smiles-entry": "O=C(Nc1ccccc1)c1cccc(Br)c1O", "IC50": "> 100 µM"}
{"smiles-entry": "O=C(Nc1cccc(Cl)c1)c1ccccc1O", "IC50": "> 100 µM"}
{"smiles-entry": "O=C(Nc1ccc(Sc2nc3ccccc3s2)cc1)c1cc(Br)cc(Br)c1O", "IC50": "1.3 µM"}

====

# study-system: E. coli GroEL/ES (Escherichia coli, UniProt P0A6F5)
# protocol-description: Inhibition of Escherichia coli GroEL expressed in Escherichia coli DH5alpha/Escherichia coli GroES expressed in Escherichia coli BL21 (DE3) assessed as reduction in GroEL/GroES-mediated denatured rhodanese refolding after 45 mins by spectrometric analysis
Overview of reported IC50 across a group of compounds:
readout-label: IC50

{"compound": "CC1(C)S[C@@H]2[C@H](NC(=O)[C@H](N)c3ccccc3)C(=O)N2[C@H]1C(=O)O", "assay-result": "> 100 µM"}
{"compound": "COc1ccccc1C(=O)Nc1ccc(Sc2nc3ccccc3s2)c(Cl)c1", "assay-result": "> 100 µM"}
{"compound": "O=C(Nc1ccccc1)c1ccccc1O [SALICYLANILIDE]", "assay-result": "> 100 µM"}
{"compound": "O=C(Nc1cccc(Cl)c1)c1cc(Br)cc(Br)c1O", "assay-result": "47 µM"}
{"compound": "COc1c(Br)cc(Br)cc1C(=O)Nc1cccc(Cl)c1", "assay-result": "> 100 µM"}
{"compound": "O=C(Nc1ccc(Sc2nc3ccccc3s2)c(Cl)c1)c1ccccc1", "assay-result": "> 100 µM"}

====

# protocol-description: Cytotoxicity against human THLE3 cells assessed as reduction in cell viability after 48 hrs by Alamar Blue reporter assay
# details: 48 h
Listed here: items and their measured CC50.

{"molecule": "O=C(Nc1ccc(Sc2nc3ccccc3s2)cc1)c1ccccc1", "CC50": "> 100 µM"}
{"molecule": "CC1(C)S[C@@H]2[C@H](NC(=O)[C@H](N)c3ccccc3)C(=O)N2[C@H]1C(=O)O [AMPICILLIN]", "CC50": "> 100 µM"}
{"molecule": "COc1ccccc1C(=O)Nc1cccc(Cl)c1", "CC50": "> 100 µM"}
{"molecule": "COc1c(Br)cccc1C(=O)Nc1ccccc1", "CC50": "> 100 µM"}
{"molecule": "COc1c(Br)cc(Br)cc1C(=O)Nc1ccc(Sc2nc3ccccc3s2)c(Cl)c1", "CC50": "> 100 µM"}
{"molecule": "O=C(Nc1ccccc1)c1cc(Br)cc(Br)c1", "CC50": "> 100 µM"}
{"molecule": "COc1c(Br)cccc1C(=O)Nc1ccc(Sc2nc3ccccc3s2)cc1", "CC50": "> 100 µM"}
{"molecule": "O=C(Nc1ccc(Sc2nc3ccccc3s2)cc1)c1ccccc1O", "CC50": "33 µM"}
{"molecule": "O=C(Nc1ccccc1)c1cc(Br)ccc1O", "CC50": "16 µM"}
{"molecule": "COc1c(Br)cccc1C(=O)Nc1ccc(Sc2nc3ccccc3s2)c(Cl)c1", "CC50": "> 100 µM"}
{"molecule": "O=C(Nc1ccc(Sc2nc3ccccc3s2)c(Cl)c1)c1ccccc1", "CC50": "82 µM"}
{"molecule": "COc1ccc(Br)cc1C(=O)Nc1ccc(Sc2nc3ccccc3s2)c(Cl)c1", "CC50": "> 100 µM"}
{"molecule": "O=C(Nc1ccc(Sc2nc3ccccc3s2)cc1)c1cc(Br)cc(Br)c1", "CC50": "> 100 µM"}
{"molecule": "COc1ccccc1C(=O)Nc1ccc(Sc2nc3ccccc3s2)c(Cl)c1", "CC50": "> 100 µM"}
{"molecule": "O=C(Nc1ccccc1)c1cccc(Br)c1O", "CC50": "56 µM"}
{"molecule": "O=C(Nc1ccc(Sc2nc3ccccc3s2)c(Cl)c1)c1cc(Br)ccc1O", "CC50": "14 µM"}
